# MEASURED_TARGET: hNurr1_RXRαFL (NURR1/RXRα heterodimer) (Homo sapiens, UniProt P19793+P43354)
# Sequence (P19793 whole entry, the tested form may be a part): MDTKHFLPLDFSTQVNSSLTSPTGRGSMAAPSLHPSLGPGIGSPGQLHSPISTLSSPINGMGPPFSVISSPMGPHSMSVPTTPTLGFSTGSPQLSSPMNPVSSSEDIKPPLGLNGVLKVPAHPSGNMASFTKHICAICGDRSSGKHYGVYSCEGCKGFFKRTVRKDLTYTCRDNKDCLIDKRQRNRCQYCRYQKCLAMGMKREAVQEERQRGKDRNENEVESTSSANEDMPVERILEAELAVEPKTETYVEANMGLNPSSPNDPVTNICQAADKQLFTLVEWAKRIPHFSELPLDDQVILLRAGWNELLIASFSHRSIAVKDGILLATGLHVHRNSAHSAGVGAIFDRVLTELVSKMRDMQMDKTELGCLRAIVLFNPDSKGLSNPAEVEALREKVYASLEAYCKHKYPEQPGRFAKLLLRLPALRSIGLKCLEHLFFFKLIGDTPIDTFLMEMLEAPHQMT
# Sequence (P43354 328-598): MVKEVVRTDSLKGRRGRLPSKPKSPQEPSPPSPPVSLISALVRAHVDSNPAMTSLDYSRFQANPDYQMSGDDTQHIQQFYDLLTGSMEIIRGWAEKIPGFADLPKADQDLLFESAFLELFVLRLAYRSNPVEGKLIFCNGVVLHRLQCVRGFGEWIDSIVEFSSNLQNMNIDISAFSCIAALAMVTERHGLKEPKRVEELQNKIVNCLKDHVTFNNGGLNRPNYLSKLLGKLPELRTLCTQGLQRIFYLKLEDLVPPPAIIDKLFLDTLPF
# PROCEDURE_DETAILS: Transactivation assay in Cos-7 cells, NURR-1-Gal4 / RXRα, luciferase reporter
# Format: cell-based
# RUN_CONDITIONS: COS-7, read-out: hNurr1_RXRαFL Eff (%), efficacy in % relative to the reference XCT0135908 at 2·10^−5 M (=100%)
Recorded Emax, one value per entry.
Provide only the numeric value, understood in %.

Some solved entries appear below for comparison.
Return Emax for the following compound: O=C(O)c1ccc(Cc2cc3cc(Cl)ccc3n2S(=O)(=O)c2ccc3ccccc3c2)cc1 [Example 163]
53

Return Emax for the following compound: O=C(O)c1ccc(Cc2cc3cc(Cl)ccc3n2S(=O)(=O)c2ccc(OC(F)(F)F)cc2)cc1 [Example 156]
69

Return Emax for the following compound: Cc1ccc(S(=O)(=O)n2c(Cc3ccc(C(=O)O)cc3)cc3cc(C(F)(F)F)ccc32)cc1 [Example 134]
50

Return Emax for the following compound: O=C(O)c1ccc(Cc2cc3cc(Cl)ccc3n2S(=O)(=O)c2ccc(-c3ccc(F)cc3)cc2)cc1 [Example 179]
62

Please examine the following record next.
Return Emax for the following compound: O=C(O)c1ccc(Cc2cc3cc(C(F)(F)F)ccc3n2S(=O)(=O)c2ccc(F)c(Cl)c2)cc1 [Example 15]
66
